- Tested system: UniProt:O14744
- Test method notes: PRMT5 Assay (PRMT5 biochemical assay)
- Experimental context: read-out: PRMT5 IC50; PRMT5 biochemical assay
pIC50: −log10 of the molar value.
Each entry below carries its recorded pIC50.

Would you please look over these solved cases?
{"Substance smiles": "CNc1ccc2ccc(OC[C@H]3O[C@@H](n4cc(-c5ncco5)c5c(N)ncnc54)[C@@H](F)[C@@H]3O)cc2n1", "pIC50": "7.00 to 8.00"}
{"Substance smiles": "CCCC(=O)c1cn([C@@H]2O[C@H](COc3ccc4ccc(NC)nc4c3)[C@@H](O)[C@@H]2F)c2ncnc(N)c12", "pIC50": "< 6.00"}
{"Substance smiles": "CNc1ccc2ccc(OC[C@H]3O[C@@H](n4cc(-c5cnn(C)c5)c5c(N)ncnc54)[C@@H](F)[C@@H]3O)cc2n1", "pIC50": "6.00 to 7.00"}
{"Substance smiles": "CNc1ccc2ccc(OC[C@H]3O[C@@H](n4cc(-c5cc(F)cc(F)c5)c5c(N)ncnc54)[C@@H](F)[C@@H]3O)cc2n1", "pIC50": "6.00 to 7.00"}
{"Substance smiles": "CCn1ccc(-c2cn([C@@H]3O[C@H](COc4ccc5ccc(NC)nc5c4)[C@@H](O)[C@@H]3F)c3ncnc(N)c23)n1", "pIC50": "7.00 to 8.00"}

response.value for CNc1ccc2ccc(OC[C@H]3O[C@@H](n4cc(-c5cccnc5)c5c(N)ncnc54)[C@@H](F)[C@@H]3O)cc2n1 (field: pIC50) = 6.00 to 7.00

response.value for CNc1ccc2ccc(OC[C@H]3O[C@@H](n4cc(-c5cn(C)cn5)c5c(N)ncnc54)[C@@H](F)[C@@H]3O)cc2n1 (field: pIC50) = 6.00 to 7.00

response.value for Cn1ccc(-c2cn([C@@H]3O[C@H](COc4ccc5ccc(N6CCC6)nc5c4)[C@@H](O)[C@@H]3F)c3ncnc(N)c23)n1 (field: pIC50) = < 6.00

response.value for CNc1ccc2ccc(OC[C@H]3O[C@@H](n4cc(-c5ccc(C)o5)c5c(N)ncnc54)[C@@H](F)[C@@H]3O)cc2n1 (field: pIC50) = 6.00 to 7.00

response.value for CNc1ccc2ccc(OC[C@H]3O[C@@H](n4cc(-c5ccnn5C)c5c(N)ncnc54)[C@@H](F)[C@@H]3O)cc2n1 (field: pIC50) = 6.00 to 7.00

response.value for CNc1ccc2ccc(OC[C@H]3O[C@@H](n4cc(-c5ccn(C)n5)c5c(N)ncnc54)[C@@H](F)[C@@H]3O)cc2n1 (field: pIC50) = 7.00 to 8.00

response.value for CNc1ccc2ccc(OC[C@H]3O[C@@H](n4cc(-c5ccccn5)c5c(N)ncnc54)[C@@H](F)[C@@H]3O)cc2n1 (field: pIC50) = 7.00 to 8.00

response.value for CCc1cc(N)c2ccc(OC[C@H]3O[C@@H](n4cc(-c5ccn(C)n5)c5c(N)ncnc54)[C@@H](F)[C@@H]3O)cc2n1 (field: pIC50) = 6.00 to 7.00

response.value for CCNc1ccc2ccc(OC[C@H]3O[C@@H](n4cc(-c5cn(C)cn5)c5c(N)ncnc54)[C@@H](F)[C@@H]3O)cc2n1 (field: pIC50) = 6.00 to 7.00

###

Each entry below carries its recorded IC50.
- Tested system: PRMT5-MEP50 (Homo sapiens)
- Sequence (O14744 whole entry): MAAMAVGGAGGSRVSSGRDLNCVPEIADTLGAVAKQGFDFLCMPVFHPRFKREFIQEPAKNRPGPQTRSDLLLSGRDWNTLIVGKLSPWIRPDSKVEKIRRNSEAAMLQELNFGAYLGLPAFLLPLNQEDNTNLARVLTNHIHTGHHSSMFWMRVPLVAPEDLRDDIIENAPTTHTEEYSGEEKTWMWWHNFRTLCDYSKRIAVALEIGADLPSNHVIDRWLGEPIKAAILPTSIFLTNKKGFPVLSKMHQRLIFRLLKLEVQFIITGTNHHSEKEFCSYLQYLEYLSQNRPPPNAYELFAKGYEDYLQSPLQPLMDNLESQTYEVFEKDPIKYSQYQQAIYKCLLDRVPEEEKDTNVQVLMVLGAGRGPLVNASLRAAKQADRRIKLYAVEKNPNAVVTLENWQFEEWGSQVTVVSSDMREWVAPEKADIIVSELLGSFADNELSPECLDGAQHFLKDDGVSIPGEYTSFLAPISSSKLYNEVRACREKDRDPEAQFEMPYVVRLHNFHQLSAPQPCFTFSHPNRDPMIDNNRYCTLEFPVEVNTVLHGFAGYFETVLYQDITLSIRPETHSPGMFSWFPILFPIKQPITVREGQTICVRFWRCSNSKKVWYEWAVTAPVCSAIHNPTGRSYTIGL
- Sequence (Q9BQA1 whole entry partner): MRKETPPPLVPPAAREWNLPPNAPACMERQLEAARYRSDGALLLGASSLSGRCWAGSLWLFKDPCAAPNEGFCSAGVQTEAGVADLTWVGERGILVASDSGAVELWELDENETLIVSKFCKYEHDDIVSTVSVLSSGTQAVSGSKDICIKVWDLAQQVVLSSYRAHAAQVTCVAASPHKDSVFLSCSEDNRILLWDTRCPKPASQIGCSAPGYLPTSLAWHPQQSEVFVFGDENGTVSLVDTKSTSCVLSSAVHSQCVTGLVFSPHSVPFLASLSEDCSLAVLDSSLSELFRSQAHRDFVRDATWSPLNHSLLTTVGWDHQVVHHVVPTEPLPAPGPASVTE
- Test method notes: PRMT5 Assay (PRMT5 biochemical assay)

Would you please look over these solved cases?
{"Substance smiles": "Nc1ncnc2c1c(-n1ccc(C(F)(F)F)n1)cn2[C@@H]1O[C@H](COc2ccc3ccc(N4CCC4)nc3c2)[C@@H](O)[C@@H]1F", "Tested system": "PRMT5-MEP50 (Homo sapiens)", "IC50": "> 1000 nM"}
{"Substance smiles": "Nc1ncnc2c1c(-c1cnccn1)cn2[C@@H]1O[C@H](COc2ccc3ccc(N4CCC4)nc3c2)[C@@H](O)[C@@H]1F", "Tested system": "PRMT5-MEP50 (Homo sapiens)", "IC50": "> 1000 nM"}
{"Substance smiles": "Cn1ccc(-c2cn([C@H]3C[C@H](O)[C@@H](COc4ccc5ccc(NC6CC6)nc5c4)O3)c3ncnc(N)c23)n1", "Tested system": "PRMT5-MEP50 (Homo sapiens)", "IC50": "100 to 1000 nM"}
{"Substance smiles": "CNc1ccc2ccc(OC[C@H]3O[C@@H](n4cc(-c5cn(C(C)C)cn5)c5c(N)ncnc54)[C@@H](F)[C@@H]3O)cc2n1", "Tested system": "PRMT5-MEP50 (Homo sapiens)", "IC50": "> 1000 nM"}
{"Substance smiles": "CNc1ccc2ccc(OC[C@H]3O[C@@H](n4cc(-c5cc[nH]n5)c5c(N)ncnc54)[C@@H](F)[C@@H]3O)cc2n1", "Tested system": "PRMT5-MEP50 (Homo sapiens)", "IC50": "100 to 1000 nM"}

response.value for Cn1ccc(-c2cn([C@@H]3C[C@H](CCc4ccc5ccc(N6CCC6)nc5c4)[C@@H](O)[C@@H]3F)c3ncnc(N)c23)n1 (field: IC50) = > 1000 nM

response.value for CCc1cc(NC)c2ccc(OC[C@H]3O[C@@H](n4cc(-c5ccn(C)n5)c5c(N)ncnc54)[C@@H](F)[C@@H]3O)cc2n1 (field: IC50) = 100 to 1000 nM

###

- System: MOLM-13 cells
- Test method notes: MOLM-13 48 Hour Cell Proliferation Assay
- Assay type: cell-based
- Experimental context: Homo sapiens
- Procedure: MOLM-13 (DSMZ) cells were seeded at 1000 cells per well in a volume of 44 μL in a Falcon 384-well tissue culture treated clear bottom microplate in RPMI 1640 media containing 10% fetal bovine serum using a Multidrop Combi (ThermoFisher Scientific). […] The plate was read on an EnVision plate reader (Perkin Elmer) using the Ultra Sensitive Luminescence protocol. […] An IC50 was calculated using a 4-parameter logistic nonlinear regression model in GraphPad Prism.
pIC50: −log10 of the molar value.
Quantity: pIC50

Would you please look over these solved cases?
{"Substance smiles": "Nc1ncnc2c1ccn2[C@H]1C[C@H](O)[C@@H](COc2ccc3ccc(NC4CC4)nc3c2)O1", "Tested system": "MOLM-13 cells", "pIC50": "< 5.00"}
{"Substance smiles": "CNc1ccc2ccc(OC[C@H]3O[C@@H](n4cc(-c5ccn(C6CCC6)n5)c5c(N)ncnc54)[C@@H](F)[C@@H]3O)cc2n1", "Tested system": "MOLM-13 cells", "pIC50": "5.00 to 6.00"}
{"Substance smiles": "CNc1ccc2ccc(OC[C@H]3O[C@@H](n4cc(-c5cc[nH]n5)c5c(N)ncnc54)[C@@H](F)[C@@H]3O)cc2n1", "Tested system": "MOLM-13 cells", "pIC50": "> 6.00"}
{"Substance smiles": "Nc1ncnc2c1c(-n1ccc(C(F)(F)F)n1)cn2[C@@H]1O[C@H](COc2ccc3ccc(N4CCC4)nc3c2)[C@@H](O)[C@@H]1F", "Tested system": "MOLM-13 cells", "pIC50": "5.00 to 6.00"}
{"Substance smiles": "Nc1ccc2ccc(CC[C@H]3C[C@@H](n4cc(C5CCCC5)c5c(N)ncnc54)[C@H](O)[C@@H]3O)cc2n1", "Tested system": "MOLM-13 cells", "pIC50": "5.00 to 6.00"}
{"Substance smiles": "Cn1ccc(-c2cn([C@@H]3O[C@H](COc4ccc5ccc(NC6CCC6)nc5c4)[C@@H](O)[C@@H]3F)c3ncnc(N)c23)n1", "Tested system": "MOLM-13 cells", "pIC50": "> 6.00"}

Now consider the entry below.
response.value for CNc1ccc2ccc(OC[C@H]3O[C@@H](n4cc(CC5CC5)c5c(N)ncnc54)[C@@H](F)[C@@H]3O)cc2n1 (field: pIC50) = 5.00 to 6.00

###

- Tested system: METTL3/METTL14 (Homo sapiens)
- Sequence (Q86U44 whole entry, species assumed): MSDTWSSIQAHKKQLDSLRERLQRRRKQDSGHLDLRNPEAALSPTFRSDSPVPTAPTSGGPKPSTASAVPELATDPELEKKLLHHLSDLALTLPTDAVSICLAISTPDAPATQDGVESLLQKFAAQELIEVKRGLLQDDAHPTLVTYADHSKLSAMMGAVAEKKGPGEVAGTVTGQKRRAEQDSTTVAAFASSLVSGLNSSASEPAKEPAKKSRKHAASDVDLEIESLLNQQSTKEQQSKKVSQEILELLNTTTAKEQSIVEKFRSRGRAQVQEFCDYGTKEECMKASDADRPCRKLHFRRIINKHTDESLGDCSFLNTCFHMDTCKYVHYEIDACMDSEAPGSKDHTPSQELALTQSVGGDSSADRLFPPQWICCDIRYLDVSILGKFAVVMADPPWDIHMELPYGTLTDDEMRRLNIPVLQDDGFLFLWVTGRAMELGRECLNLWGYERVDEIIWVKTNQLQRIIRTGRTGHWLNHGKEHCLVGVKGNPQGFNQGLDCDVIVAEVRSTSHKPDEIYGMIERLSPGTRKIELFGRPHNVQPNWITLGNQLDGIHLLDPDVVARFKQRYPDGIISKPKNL
- Sequence (Q9HCE5 whole entry partner, species assumed): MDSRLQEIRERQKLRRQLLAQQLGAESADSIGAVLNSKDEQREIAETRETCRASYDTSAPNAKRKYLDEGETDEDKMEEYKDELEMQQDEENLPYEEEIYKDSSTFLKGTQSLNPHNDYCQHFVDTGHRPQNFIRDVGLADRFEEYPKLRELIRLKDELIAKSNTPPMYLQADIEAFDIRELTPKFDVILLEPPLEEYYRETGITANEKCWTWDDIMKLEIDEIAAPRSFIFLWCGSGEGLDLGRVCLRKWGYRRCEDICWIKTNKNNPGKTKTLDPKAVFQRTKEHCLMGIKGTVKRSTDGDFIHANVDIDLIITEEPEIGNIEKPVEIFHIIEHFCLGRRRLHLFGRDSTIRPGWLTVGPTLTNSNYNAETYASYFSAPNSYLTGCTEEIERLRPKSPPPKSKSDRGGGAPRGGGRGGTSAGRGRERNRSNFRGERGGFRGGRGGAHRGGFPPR
- Test method notes: METTL3-14 Standard Enzyme Assay (METTL3 biochemical assay)
- Experimental context: METTL3 biochemical assay; read-out: METTL3 IC50
Quantity: IC50

{"Compound": "CNc1ccc2ccc(OC[C@H]3O[C@@H](n4cc(Br)c5c(N)ncnc54)[C@H](O)[C@@H]3O)cc2n1 [I-73]", "Value reported": "< 10 nM"}
{"Compound": "CNc1ccc2cc(CC[C@H]3C[C@@H](n4ccc5c(N)ncnc54)[C@H](O)[C@@H]3O)ccc2n1 [I-111]", "Value reported": "100 to 1000 nM"}
{"Compound": "Nc1ncnc2c1ccn2[C@@H]1C[C@H](CCc2ccc3c(OCc4ccccc4)ccnc3c2)[C@@H](O)[C@H]1O [I-86]", "Value reported": "> 1000 nM"}

Now consider the entry below.
response.value for Cc1cc(N)c2ccc(OC[C@H]3O[C@@H](n4cc(Br)c5c(N)ncnc54)[C@@H](F)[C@@H]3O)cc2n1 [I-27] (field: IC50) = 10 to 100 nM
